Cited source: patent US8664228B2

# ASSAY_SYSTEM: epithelial sodium channel (ENaC) (Homo sapiens, UniProt P37088+P51168+P51170)
# Sequence (P37088 whole entry): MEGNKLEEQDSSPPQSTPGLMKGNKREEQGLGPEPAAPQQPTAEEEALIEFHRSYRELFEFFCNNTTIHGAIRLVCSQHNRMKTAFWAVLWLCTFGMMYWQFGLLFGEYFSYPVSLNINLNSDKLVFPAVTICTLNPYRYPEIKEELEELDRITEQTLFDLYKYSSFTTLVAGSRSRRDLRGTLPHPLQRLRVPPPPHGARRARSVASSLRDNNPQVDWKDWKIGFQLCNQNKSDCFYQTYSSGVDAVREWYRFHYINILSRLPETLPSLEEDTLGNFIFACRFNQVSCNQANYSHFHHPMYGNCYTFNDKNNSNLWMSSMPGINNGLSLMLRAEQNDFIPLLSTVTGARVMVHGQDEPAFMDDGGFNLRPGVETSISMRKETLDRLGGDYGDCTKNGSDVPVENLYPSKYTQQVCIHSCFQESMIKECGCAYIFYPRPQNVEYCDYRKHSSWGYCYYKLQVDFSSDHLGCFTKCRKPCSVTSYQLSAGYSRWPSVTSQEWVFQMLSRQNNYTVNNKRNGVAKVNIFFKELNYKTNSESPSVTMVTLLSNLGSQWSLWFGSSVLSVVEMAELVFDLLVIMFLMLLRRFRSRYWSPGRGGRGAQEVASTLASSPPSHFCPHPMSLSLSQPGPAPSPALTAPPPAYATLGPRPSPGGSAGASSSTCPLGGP
# Sequence (P51168 whole entry): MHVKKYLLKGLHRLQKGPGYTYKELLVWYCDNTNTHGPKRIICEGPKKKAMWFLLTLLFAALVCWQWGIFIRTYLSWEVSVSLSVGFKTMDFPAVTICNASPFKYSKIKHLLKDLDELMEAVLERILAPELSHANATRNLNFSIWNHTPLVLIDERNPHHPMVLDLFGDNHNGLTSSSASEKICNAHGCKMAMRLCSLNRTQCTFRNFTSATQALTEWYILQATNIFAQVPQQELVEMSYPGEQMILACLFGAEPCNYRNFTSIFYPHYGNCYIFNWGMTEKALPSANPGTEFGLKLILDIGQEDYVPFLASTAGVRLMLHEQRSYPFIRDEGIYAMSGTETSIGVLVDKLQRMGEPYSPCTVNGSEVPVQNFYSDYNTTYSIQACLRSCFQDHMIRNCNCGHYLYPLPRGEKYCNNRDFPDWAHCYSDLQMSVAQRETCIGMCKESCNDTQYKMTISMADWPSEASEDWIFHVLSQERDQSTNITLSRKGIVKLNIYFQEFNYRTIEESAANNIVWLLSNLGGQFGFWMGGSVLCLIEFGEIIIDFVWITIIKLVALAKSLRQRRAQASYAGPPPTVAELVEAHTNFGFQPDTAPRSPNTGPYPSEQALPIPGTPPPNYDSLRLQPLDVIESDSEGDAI
# Sequence (P51170 whole entry): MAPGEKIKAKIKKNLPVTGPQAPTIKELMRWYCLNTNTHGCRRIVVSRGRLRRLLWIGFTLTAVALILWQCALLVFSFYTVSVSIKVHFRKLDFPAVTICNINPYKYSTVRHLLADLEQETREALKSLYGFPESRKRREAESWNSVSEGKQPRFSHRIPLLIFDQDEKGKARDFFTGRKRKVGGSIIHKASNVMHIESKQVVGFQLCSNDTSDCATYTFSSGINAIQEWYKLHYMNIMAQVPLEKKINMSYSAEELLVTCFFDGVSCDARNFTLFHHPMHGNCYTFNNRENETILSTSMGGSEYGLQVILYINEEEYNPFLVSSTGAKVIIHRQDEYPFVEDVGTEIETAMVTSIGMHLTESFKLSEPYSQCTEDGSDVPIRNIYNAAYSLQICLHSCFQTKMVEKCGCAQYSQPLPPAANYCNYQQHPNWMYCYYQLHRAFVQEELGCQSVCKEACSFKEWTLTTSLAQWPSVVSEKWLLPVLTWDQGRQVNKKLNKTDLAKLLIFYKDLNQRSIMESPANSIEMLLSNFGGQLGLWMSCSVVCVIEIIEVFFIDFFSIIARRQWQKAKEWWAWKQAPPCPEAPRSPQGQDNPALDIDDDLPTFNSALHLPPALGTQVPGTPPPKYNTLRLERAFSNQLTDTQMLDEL
# TEST_METHOD_NOTES: Short circuit current (ISC) measurements in human bronchial epithelial cells, inhibition of amiloride-sensitive ISC
# MEASUREMENT_PARAMETERS: Human Bronchial Epithelial cells (HBECs) at air-liquid interface, Ussing chamber, apical addition
# Protocol: Human Bronchial Epithelial cells (HBECs) (Cambrex) were cultured under air-liquid interface conditions to provide a well differentiated mucociliary phenotype. […] Snapwell inserts were mounted in Vertical Diffusion Chambers (Costar) and were bathed with continuously gassed Ringer solution (5% CO2 in O2; pH 7.4) maintained at 37° C. containing (in mM): 120 NaCl, 25 NaHCO3, 3.3 KH2PO4, 0.8 K2HPO4, 1.2 CaCl2, 1.2 MgCl2, and 10 glucose. […] Data were recorded using a PowerLab workstation (ADInstruments). […]
Structures can show the parent of a compound that is named as a salt.
MEASUREMENT_LABEL: IC50 (nM)

Here is how some compounds turned out for IC50.
Qu. Find the recorded IC50 belonging to CCC[C@@H](CNC(=O)c1nc(Cl)c(N)nc1N)NC(=N)NCCCc1ccc(OC)cc1 [Example 31] and report it.
Ans. 49

Qu. Next up: CCC[C@@H](CNC(=O)c1nc(Cl)c(N)nc1N)NC(=N)NCc1ccc(OC)cc1 [Example 32]
Ans. 6

Qu. Repeat for the following compound: Nc1nc(N)c(C(=O)NC[C@@H](N)CCCCNC(=O)Cc2ccc(OCc3ccccc3)cc2)nc1Cl [Example 12]
Ans. 32

Qu. And for CCC[C@H](CNC(=O)c1nc(Cl)c(N)nc1N)NC(=N)N [Example 24, trifluoroacetate] ?
Ans. 45

1: CCC[C@H](N)CNC(=O)c1nc(Cl)c(N)nc1N [Example 4, hydrochloride]
2: Nc1nc(N)c(C(=O)NC[C@@H](N)CCCCNC(=O)CCc2ccc(OCc3ccccc3)cc2)nc1Cl [Example 21, hydrochloride]
3: CCC[C@H](CNC(=O)c1nc(Cl)c(N)nc1N)N(CCCc1ccc(OC)cc1)C(=N)N [Example 29, trifluoroacetate]
4: Nc1nc(N)c(C(=O)NCC2(N)CCCC2)nc1Cl [Example 11, hydrochloride]
Qu. List from greatest to least IC50. Please list the labels according to the requested order.
Ans. 4, 1, 2, 3
